Record form. Attribute: MIC. Fill in for each entry.
- System: methicillin-resistant Staphylococcus aureus (MRSA) isolates
- test-details: MIC measured by agar dilution method (CLSI)
- Format: cell-based
- condition-context: Staphylococcus aureus, MRSA, strain 6505; LEV^R RIF^S; agar dilution
Report only the number, with the unit µg/mL understood.

Problem: Answer with MIC of CO[C@H]1/C=C/O[C@@]2(C)Oc3c(C)c(O)c4c(O)c(c(/C=N/N5CCN(C)CC5)c(O)c4c3C2=O)NC(=O)/C(C)=C\C=C\[C@H](C)[C@H](O)[C@@H](C)[C@@H](O)[C@@H](C)[C@H](OC(C)=O)[C@@H]1C [Rifampicin] measured for methicillin-resistant Staphylococcus aureus (MRSA) isolates.
Solution: 0.015

Problem: Answer with MIC of C[C@H]1COc2c(N3CCN(C)CC3)c(F)cc3c(=O)c(C(=O)O)cn1c23 [Levofloxacin] measured for methicillin-resistant Staphylococcus aureus (MRSA) isolates.
Solution: 4

Problem: Answer with MIC of CO[C@H]1/C=C/O[C@@]2(C)Oc3c(C)c(O)c4c(O)c(c(/C=N/N5CCC(N(C)C6([C@@H]7CCN(c8c(F)cn9c(=O)c(C(=O)O)cc(C%10CC%10)c9c8C)C7)CC6)CC5)c(O)c4c3C2=O)NC(=O)/C(C)=C\C=C\[C@H](C)[C@H](O)[C@@H](C)[C@@H](O)[C@@H](C)[C@H](OC(C)=O)[C@@H]1C [I] measured for methicillin-resistant Staphylococcus aureus (MRSA) isolates.
Solution: 0.015
